tested on: E. coli DY-1; experiment: MIC by agar dilution, E. coli DY-1; format: cell-based; settings: Escherichia coli, DY1, 17 h; E. coli DY-1; agar dilution, Mueller-Hinton agar; read-out: Minimal Inhibitory Concentration (MIC)
metric_name: MIC (µg/mL)

[
  {
    "compound": "CON=C(C(=O)NC1C(=O)N2C(C(=O)[O-])=C(C[n+]3ccn4c(C(C)=O)ccc4c3)CSC12)c1csc(N)n1 (stereo not shown)",
    "metric_name": "MIC",
    "units_text": "µg/mL",
    "assay_value": 0.012
  },
  {
    "compound": "CCO/N=C(\\C(=O)N[C@@H]1C(=O)N2C(C(=O)[O-])=C(C[n+]3ccn4c(Br)ccc4c3C)CS[C@H]12)c1csc(N)n1",
    "metric_name": "MIC",
    "units_text": "µg/mL",
    "assay_value": 0.025
  },
  {
    "compound": "CCO/N=C(\\C(=O)N[C@@H]1C(=O)N2C(C(=O)[O-])=C(C[n+]3ccn4cccc4c3C)CS[C@H]12)c1csc(N)n1",
    "metric_name": "MIC",
    "units_text": "µg/mL",
    "assay_value": 0.012
  },
  {
    "compound": "CO/N=C(\\C(=O)N[C@@H]1C(=O)N2C(C(=O)[O-])=C(C[n+]3ccn4c(Cl)ccc4c3C)CS[C@H]12)c1csc(N)n1",
    "metric_name": "MIC",
    "units_text": "µg/mL",
    "assay_value": 0.012
  },
  {
    "compound": "CCON=C(C(=O)NC1C(=O)N2C(C(=O)[O-])=C(C[n+]3ccn4c(C(N)=O)ccc4c3)CSC12)c1csc(N)n1 (stereo not shown)",
    "metric_name": "MIC",
    "units_text": "µg/mL",
    "assay_value": 0.025
  },
  {
    "compound": "CON=C(C(=O)NC1C(=O)N2C(C(=O)[O-])=C(C[n+]3ccn4c(C=O)ccc4c3)CSC12)c1csc(N)n1 (stereo not shown)",
    "metric_name": "MIC",
    "units_text": "µg/mL",
    "assay_value": 0.05
  },
  {
    "compound": "CO/N=C(\\C(=O)N[C@@H]1C(=O)N2C(C(=O)[O-])=C(C[n+]3ccn4c(SCCO)ccc4c3)CS[C@H]12)c1nc(N)sc1Cl",
    "metric_name": "MIC",
    "units_text": "µg/mL",
    "assay_value": 0.025
  }
]

----------
tested on: E. coli DY-1; test: MIC by agar dilution, E. coli DY-1; assay type: cell-based; conditions: Escherichia coli, DY1, 17 h; E. coli DY-1; agar dilution, Mueller-Hinton agar; read-out: Minimal Inhibitory Concentration (MIC)
Parameter MIC: see the listing below.
metric_name: MIC (µg/mL)

[
  {
    "compound": "Nc1nc(C(=NOCF)C(=O)NC2C(=O)N3C(C(=O)[O-])=C(C[n+]4ccn5c(SCCO)ccc5c4)CSC23)cs1 (stereo not shown)",
    "tested_system": "E. coli DY-1",
    "units_text": "µg/mL",
    "reported_relation": "≤",
    "assay_value": 0.006
  },
  {
    "compound": "CON=C(C(=O)NC1C(=O)N2C(C(=O)[O-])=C(C[n+]3ccn4c(C(C)O)ccc4c3)CSC12)c1csc(N)n1 (stereo not shown)",
    "tested_system": "E. coli DY-1",
    "units_text": "µg/mL",
    "reported_relation": "≤",
    "assay_value": 0.006
  },
  {
    "compound": "CO/N=C(\\C(=O)N[C@@H]1C(=O)N2C(C(=O)[O-])=C(C[n+]3ccn4cccc4c3)CS[C@H]12)c1nsc(N)n1",
    "tested_system": "E. coli DY-1",
    "units_text": "µg/mL",
    "reported_relation": "=",
    "assay_value": 0.025
  },
  {
    "compound": "CCON=C(C(=O)NC1C(=O)N2C(C(=O)[O-])=C(C[n+]3ccn4c(Cl)ccc4c3)CSC12)c1csc(N)n1 (stereo not shown)",
    "tested_system": "E. coli DY-1",
    "units_text": "µg/mL",
    "reported_relation": "=",
    "assay_value": 0.012
  },
  {
    "compound": "CON=C(C(=O)NC1C(=O)N2C(C(=O)[O-])=C(C[n+]3ccn4ccc(CO)c4c3)CSC12)c1csc(N)n1 (stereo not shown)",
    "tested_system": "E. coli DY-1",
    "units_text": "µg/mL",
    "reported_relation": "≤",
    "assay_value": 0.006
  },
  {
    "compound": "CCON=C(C(=O)NC1C(=O)N2C(C(=O)[O-])=C(C[n+]3ccn4ccc(CO)c4c3)CSC12)c1csc(N)n1 (stereo not shown)",
    "tested_system": "E. coli DY-1",
    "units_text": "µg/mL",
    "reported_relation": "≤",
    "assay_value": 0.006
  },
  {
    "compound": "CO/N=C(\\C(=O)N[C@@H]1C(=O)N2C(C(=O)[O-])=C(C[n+]3ccn4c(C(C)C)cc(C(C)C)c4c3)CS[C@H]12)c1csc(N)n1",
    "tested_system": "E. coli DY-1",
    "units_text": "µg/mL",
    "reported_relation": "=",
    "assay_value": 0.1
  }
]
